test system: 7G8; assay: qHTS profiling for inhibitors of Plasmodium falciparum proliferation (AID 504749);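 also: 0% = DMSO vehicle and full inhibition = artemisinin control; nearly all actives have a fitted effect of over 60% in size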; settings: P. falciparum in erythrocytes, SYBR Green DNA, 72 h; series mostly up to 28.7 µM
Records with an inconclusive call do not appear. The source made the active and inactive calls. Calls follow the shape of the dose curve; as a rule, active = well fitted inhibition curve with a large enough effect; inconclusive = small, poorly fitted or top-dose-only effect; inactive = flat fitted curve, though single readings scatter.
Choose the fitting class; nothing outside 1 = active, 0 = inactive is accepted.

Examples with answers:
| Compound | Classification |
| --- | --- |
| O=C(O)/C=C/C(O)c1ccc(Cl)cc1 (configuration not stated) | 0 |
| c1ccc2sc(SSc3nc4ccccc4s3)nc2c1 | 0 |
| O=C(O)COc1ccc(C(=O)c2cccs2)c(Cl)c1Cl | 0 |

## Input Hi team, can someone confirm the assay call for `Cc1[nH]cnc1CN1CCc2c(c3ccccc3n2C)C1=O` ?
## Output 0

## Input Try `O=C(O)Cc1ccc(-c2ccccc2)cc1` next.
## Output 0

---

experiment: qHTS of pediatric cancer cell lines to identify multiple opportunities for drug repurposing: Primary screen for MG 63 (6-TG R) cells (AID 1347105); conditions: MG 63 (6-TG R) viability, CellTiter-Glo, 48 h; series mostly up to 46 µM; also: nearly all actives have a fitted effect of over 50% in size
Records with an inconclusive call do not appear. Activity calls are given as the source filed them. The call rests on the fitted dose curve; in most records, active means well fitted cell-killing curve with a large enough effect; inconclusive means small, poorly fitted or top-dose-only effect; inactive means no such curve, though single readings can be large or run the other way.
Choose the fitting class; nothing outside Yes (active), No (inactive) is accepted.

Examples with answers:
| Molecule | Classification |
| --- | --- |
| CN(C)CCn1nnnc1SCC1=C(C(=O)O)N2C(=O)[C@@H](NC(=O)Cc3csc(N)n3)[C@H]2SC1 | No |
| c1ccc2sc(SN3CCOCC3)nc2c1 | No |
| c1ccc2sc(SSc3nc4ccccc4s3)nc2c1 | No |
| C=CCCCCCCCCC(=O)O | No |
| Oc1c(Br)cc(Br)c2cccnc12 | Yes |
| c1ccc(CCNc2nc(-c3ccccc3)cs2)cc1 | No |
| Cc1nc2ccccc2n1Cc1ccc(Cl)cc1 | No |
| CCOc1ccc2nc(S(N)(=O)=O)sc2c1 | No |

## Input Hi team, can someone confirm the assay call for CC(N)C(=O)OC(C)(C)Cc1ccc(Cl)cc1 (configuration not stated) ?
## Output No

## Input Try `Cc1c(N)c(=O)n(-c2ccccc2)n1C` next.
## Output No

## Input Try `C/C(=N\O)c1ccc(OCC(=O)N2CCCCC2)cc1` next.
## Output No

## Input Try COc1ccnc2c1CCCCC2S(=O)c1nc2ccccc2[nH]1 (configuration not stated) next.
## Output No

## Input Try `Nc1ccc(O)c(C(=O)O)c1` next.
## Output No

## Input Try `COc1ccc(-c2cc(=S)ss2)cc1` next.
## Output No

## Input Try `O=C(O)Cc1ccc2c(c1)C(=O)c1ccccc1CO2` next.
## Output No

---

target: Guanidinoacetate N-methyltransferase (Homo sapiens); assay: Confirmatory Screen for Target Class Profiling of Small Molecule Inhibitors of Methyltransferases (AID 1745852); conditions: MTase-Glo luminescence, SAH detection, recombinant enzyme; also: potency is read from the fitted curve at half-maximal effect
Calls of active or inactive are those of the source. The call rests on the fitted dose curve.
Readout Name: Potency

Example molecules with recorded Potency:
| Mol Smiles | Potency |
| --- | --- |
| COC1=C(OC)C(=O)c2ccccc2C1=O | 19.3 µM (active) |
| O=C1NCc2c1c1c3ccccc3[nH]c1c1[nH]c3ccccc3c21 | 17.2 µM (active) |
| O=C1C(SCCO)=C(SCCO)C(=O)c2ccccc21 | 4.85 µM (active) |

Turning now to a further record.
## Input So what does the record say about Potency for `N.N.N.N.N.N.N.N.N.N.N.N.N.N.O.O.[Ru+4].[Ru+5].[Ru+5]` ?
## Output 30.6 µM (active)

---

test: NFAT Signaling Pathway (AID 444); details: Jurkat NFAT-bla M1, carbachol, beta-lactamase ratio, 5 h; at 38 µM (top of the series) unless noted;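 also: carbachol stimulus at about its EC50 of 1 µM final; % is scaled to controls: 0 for no effect and ±100 for the full control effect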
Inconclusive results are not listed. The source made the active and inactive calls. Calls follow the shape of the dose curve; as a rule, active = well fitted curve in either direction with a large enough effect (not every such curve was filed as active); inconclusive = small, poorly fitted or top-dose-only effect, or another doubt; inactive = flat fitted curve, though single readings scatter.
Readout Name: activity change, negative = inhibition

Example compounds with recorded activity change, negative = inhibition:
| Mol Smiles | activity change, negative = inhibition |
| --- | --- |
| CN(C)C(N)=NCCC[C@H](N)C(=O)O | -0.969% (inactive) |
| NO | -5.23% (inactive) |

## Input So what does the record say about activity change, negative = inhibition for `N[C@H](CCCP(=O)(O)O)C(=O)O` ?
## Output -6.29% (inactive)

## Input Try `O=c1[nH]c2cc(C(F)(F)F)ccc2n1-c1cc(C(F)(F)F)ccc1O` next.
## Output 7.55% (inactive)

## Input Try `COc1ccc(/C=C/C(=O)Nc2ccccc2C(=O)O)cc1OC` next.
## Output 22.7% [at 17.2 µM] (inactive)

---

assay: Drug repurposing screens with cells derived from glioblastoma tumor samples (AID 1345199); conditions: GBM patient neurospheres viability, ATP luminescence, 48 h; at 46 µM (top of the series); tumour line A; also: % is scaled to controls: 0 for no effect and ±100 for the full control effect; nearly all actives have a fitted effect of over 40% in size
Records with an inconclusive call do not appear. The source made the active and inactive calls. The call rests on the fitted dose curve; in most records, active means well fitted inhibition curve with a large enough effect; inconclusive means small, poorly fitted or top-dose-only effect; inactive means flat fitted curve, though single readings scatter.
Readout Name: activity, negative = cell killing

| Molecule | activity, negative = cell killing |
| --- | --- |
| C=CCCCCCCCCC(=O)O | -10.4% (inactive) |
| CCCCCCCCCCCCCCCC(=O)OC(C)C | -26.7% (inactive) |

## Input So what does the record say about activity, negative = cell killing for `O=C(O)[C@H](CC(=O)N1C[C@H]2CCCC[C@H]2C1)Cc1ccccc1` ?
## Output -25.9% (inactive)

## Input Try `CC1(C)S[C@@H]2[C@H](NC(=O)[C@H](N)c3ccc(O)cc3)C(=O)N2[C@H]1C(=O)O` next.
## Output -16.6% (inactive)

## Input Try `C[N+](C)(C)CCOP(=O)(O)OP(=O)([O-])OC[C@H]1O[C@@H](n2ccc(N)nc2=O)[C@H](O)[C@@H]1O` next.
## Output -13.9% (inactive)

## Input Try `CC(=O)c1ccc(OCC(=O)N2CCCCC2)cc1` next.
## Output -29.4% (inactive)

## Input Try `CCCCC[C@H](O)/C=C/[C@@H]1[C@@H](C/C=C\CCCC(=O)O)[C@@H](O)C[C@H]1O` next.
## Output -9.88% (inactive)

## Input Try C=CC(N)CCC(=O)O (stereo not drawn) next.
## Output -11.6% (inactive)

## Input Try `O=C(OCc1ccccc1)c1ccccc1` next.
## Output -13.2% (inactive)

## Input Try `CCOC(=O)c1ccccc1O` next.
## Output -24.1% (inactive)

## Input Try O=C(O)/C=C/C(O)c1ccc(Cl)cc1 (stereo not drawn) next.
## Output -31.6% (inactive)

## Input Try `O=C(O)c1ccccc1Nc1cccc(C(F)(F)F)c1` next.
## Output -4.14% (inactive)

## Input Try `Nc1ccc(C(=O)O)c(O)c1` next.
## Output -9.87% (inactive)

---

assay: qHTS of pediatric cancer cell lines to identify multiple opportunities for drug repurposing: Confirmatory screen for BT-12 cells (AID 1347112); settings: BT-12 rhabdoid tumor cells, viability; series mostly up to 95.5 µM;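 also: potency is read from the fitted curve at half-maximal effect; viability read after 48 h of compound exposure; nearly all actives have a fitted effect of over 55% in size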
Records with an inconclusive call do not appear. Calls of active or inactive are those of the source. Calls follow the shape of the dose curve; as a rule, active = well fitted cell-killing curve with a large enough effect; inconclusive = small, poorly fitted or top-dose-only effect; inactive = flat fitted curve, though single readings scatter.
Readout Name: Potency

| Mol Smiles | Observed Result |
| --- | --- |
| COc1cccc2c1C(=O)c1c(O)c3c(c(O)c1C2=O)C[C@@](O)(C(=O)CO)C[C@@H]3O[C@H]1C[C@H](N)[C@H](O[C@@H]2CCCCO2)[C@H](C)O1 | 13.1 µM (active) |
| COC(=O)Nc1nc2ccc(C(=O)C3CC3)cc2[nH]1 | 16.5 µM (active) |
| [O-][n+]1ccccc1SSc1cccc[n+]1[O-] | 3.23 µM (active) |

Turning now to a further record.
## Input So what does the record say about Potency for `CN(C)c1ccc(C(=C2C=CC(=[N+](C)C)C=C2)c2ccccc2)cc1` ?
## Output 1.85 µM (active)

---

assay: Nrf2 qHTS screen for inhibitors: Validation (AID 493153); conditions: A549 ARE-Fluc reporter, 18-24 h; measured here: cytotoxicity max response
Results filed as inconclusive are left out.
Readout Name: viability change (%)
Unit % implied. Number only.

Example compounds with recorded viability change:
| Compound | Uom | viability change |
| --- | --- | --- |
| N#C/C(=C\c1ccc(O)c(O)c1)C(=O)c1ccc(O)c(O)c1 | % | -19.7 |
| CCc1c(C(=O)NCCc2ccc(N3CCCCC3)cc2)[nH]c2ccc(Cl)cc12 | % | -7.76 |
| CNc1ncnc2c1ncn2[C@@H]1O[C@H](CO)[C@@H](O)[C@H]1O | % | -0.614 |
| N[C@@H](CC(=O)O)C(=O)O | % | -0.666 |

## Input So what does the record say about viability change for `CC(C)(C=O)Cc1cc(C(C)(C)C)c(O)c(C(C)(C)C)c1` ?
## Output 5.81
